System Under Test: ERBB3 (Homo sapiens)
Construct: purchased Eurofins DiscoverX KINOMEscan (scanTK)
Sequence (P21860 20-1342): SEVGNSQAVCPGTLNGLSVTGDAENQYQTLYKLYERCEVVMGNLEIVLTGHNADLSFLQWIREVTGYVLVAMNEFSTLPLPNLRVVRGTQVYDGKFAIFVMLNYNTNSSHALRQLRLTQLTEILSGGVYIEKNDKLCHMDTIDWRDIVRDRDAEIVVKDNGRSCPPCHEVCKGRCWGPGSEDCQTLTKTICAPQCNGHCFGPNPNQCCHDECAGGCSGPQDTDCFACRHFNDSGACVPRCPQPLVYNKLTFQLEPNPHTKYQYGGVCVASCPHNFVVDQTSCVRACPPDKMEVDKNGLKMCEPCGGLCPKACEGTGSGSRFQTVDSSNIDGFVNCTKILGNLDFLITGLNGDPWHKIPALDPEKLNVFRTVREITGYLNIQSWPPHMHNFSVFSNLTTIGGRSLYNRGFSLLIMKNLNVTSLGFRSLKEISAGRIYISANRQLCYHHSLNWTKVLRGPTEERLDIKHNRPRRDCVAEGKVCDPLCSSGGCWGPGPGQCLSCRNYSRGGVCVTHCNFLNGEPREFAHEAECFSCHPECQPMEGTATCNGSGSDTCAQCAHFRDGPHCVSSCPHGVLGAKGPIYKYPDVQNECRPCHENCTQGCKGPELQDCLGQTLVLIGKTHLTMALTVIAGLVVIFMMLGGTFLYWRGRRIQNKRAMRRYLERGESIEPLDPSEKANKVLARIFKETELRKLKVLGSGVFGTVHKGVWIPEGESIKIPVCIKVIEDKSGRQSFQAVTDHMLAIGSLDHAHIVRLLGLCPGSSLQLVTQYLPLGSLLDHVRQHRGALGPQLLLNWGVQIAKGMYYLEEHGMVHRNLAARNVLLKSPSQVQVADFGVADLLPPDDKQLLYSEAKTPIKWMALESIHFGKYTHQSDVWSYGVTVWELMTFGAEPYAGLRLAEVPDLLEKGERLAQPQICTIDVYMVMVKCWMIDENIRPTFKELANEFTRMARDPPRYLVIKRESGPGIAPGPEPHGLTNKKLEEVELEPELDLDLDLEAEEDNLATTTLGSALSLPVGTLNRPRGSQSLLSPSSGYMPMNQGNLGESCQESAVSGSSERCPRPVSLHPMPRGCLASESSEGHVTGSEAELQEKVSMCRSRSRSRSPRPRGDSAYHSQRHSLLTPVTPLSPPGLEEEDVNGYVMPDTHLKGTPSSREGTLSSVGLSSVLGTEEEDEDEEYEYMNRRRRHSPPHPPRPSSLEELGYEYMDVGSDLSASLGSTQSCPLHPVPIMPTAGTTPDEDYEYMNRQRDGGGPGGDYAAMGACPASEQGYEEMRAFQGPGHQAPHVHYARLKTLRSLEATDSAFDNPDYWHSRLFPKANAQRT
Procedure Text: KINOMEscan ScanTK
Type: binding
Test Context: @1000nM; ERBB3; read-out: %Control
Quantity Name: remaining binding at 1 µM (%)

molecule=CCOC(=O)c1cnc(S(C)(=O)=O)nc1N1CCC[C@@H](n2nc(-c3ccc(Oc4ccccc4)cc3)c3c(N)ncnc32)C1 quantity_name="remaining binding at 1 µM" numeric_result=39
molecule="COC(=O)c1cnc(S(C)(=O)=O)nc1N1CCCC(n2nc(-c3ccc(Oc4ccccc4)cc3)c3c(N)ncnc32)C1 (centres unmarked)" quantity_name="remaining binding at 1 µM" numeric_result=2.3
molecule="CNC(=O)c1cnc(S(C)(=O)=O)nc1N1CCCC(n2nc(-c3ccc(Oc4ccccc4)cc3)c3c(N)ncnc32)C1 (centres unmarked)" quantity_name="remaining binding at 1 µM" numeric_result=8.9
molecule="C=CC(=O)N1CCC[C@@H](n2nc(-c3ccc(Oc4ccccc4)cc3)c3c(N)ncnc32)C1 [Compound 1g, Ibrutinib, reference compound]" quantity_name="remaining binding at 1 µM" numeric_result=0
molecule="Cc1cnc(S(C)(=O)=O)nc1N1CCCC(n2nc(-c3ccc(Oc4ccccc4)cc3)c3c(N)ncnc32)C1 (centres unmarked)" quantity_name="remaining binding at 1 µM" numeric_result=0

----------
System Under Test: FLT1 (Homo sapiens)
Construct: purchased Eurofins DiscoverX KINOMEscan (scanTK)
Sequence (P17948 27-1338): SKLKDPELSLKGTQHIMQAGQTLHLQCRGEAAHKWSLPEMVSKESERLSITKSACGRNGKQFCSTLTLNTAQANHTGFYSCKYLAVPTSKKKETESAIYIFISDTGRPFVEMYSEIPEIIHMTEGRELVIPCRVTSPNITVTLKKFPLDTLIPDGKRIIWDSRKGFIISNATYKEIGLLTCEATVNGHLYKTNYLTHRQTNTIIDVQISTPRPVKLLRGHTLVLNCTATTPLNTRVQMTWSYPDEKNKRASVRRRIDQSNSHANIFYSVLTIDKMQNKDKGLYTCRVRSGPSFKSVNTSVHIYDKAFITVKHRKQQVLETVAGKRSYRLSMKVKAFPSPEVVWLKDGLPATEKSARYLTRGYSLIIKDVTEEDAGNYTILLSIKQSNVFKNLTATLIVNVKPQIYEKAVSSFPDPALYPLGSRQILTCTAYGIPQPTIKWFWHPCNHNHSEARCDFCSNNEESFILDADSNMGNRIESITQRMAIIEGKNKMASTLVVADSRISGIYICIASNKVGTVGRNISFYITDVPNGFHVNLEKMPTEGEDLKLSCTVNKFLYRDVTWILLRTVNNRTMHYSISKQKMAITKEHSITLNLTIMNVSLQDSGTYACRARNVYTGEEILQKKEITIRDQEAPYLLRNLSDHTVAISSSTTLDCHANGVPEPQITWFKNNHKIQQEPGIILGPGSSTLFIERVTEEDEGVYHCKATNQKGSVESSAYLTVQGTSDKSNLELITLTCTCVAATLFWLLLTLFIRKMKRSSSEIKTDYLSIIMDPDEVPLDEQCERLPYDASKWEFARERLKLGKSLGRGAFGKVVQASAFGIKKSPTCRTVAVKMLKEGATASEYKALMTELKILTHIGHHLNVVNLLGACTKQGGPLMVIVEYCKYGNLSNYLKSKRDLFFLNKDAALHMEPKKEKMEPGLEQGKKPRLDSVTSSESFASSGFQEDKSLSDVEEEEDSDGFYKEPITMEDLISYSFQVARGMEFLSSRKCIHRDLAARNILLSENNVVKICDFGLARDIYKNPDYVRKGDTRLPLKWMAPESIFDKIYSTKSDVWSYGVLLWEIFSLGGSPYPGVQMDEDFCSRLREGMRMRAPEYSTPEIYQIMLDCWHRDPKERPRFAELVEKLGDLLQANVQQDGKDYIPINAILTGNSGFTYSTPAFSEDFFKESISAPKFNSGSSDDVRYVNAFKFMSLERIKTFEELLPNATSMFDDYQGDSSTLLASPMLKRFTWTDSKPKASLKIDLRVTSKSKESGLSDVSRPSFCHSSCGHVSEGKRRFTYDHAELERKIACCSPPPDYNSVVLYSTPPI
Procedure Text: KINOMEscan ScanTK
Assay type: binding
Test Context: @1000nM, read-out: %Control
Parameter remaining binding at 1 µM: see the listing below.
Quantity Name: remaining binding at 1 µM (%)

compound="CNC(=O)c1cnc(S(C)(=O)=O)nc1N1CCCC(n2nc(-c3ccc(Oc4ccccc4)cc3)c3c(N)ncnc32)C1 (centres unmarked)" system_under_test="FLT1 (Homo sapiens)" quantity_name="remaining binding at 1 µM" units_symbol=% numeric_result=100
compound="Cc1cnc(S(C)(=O)=O)nc1N1CCCC(n2nc(-c3ccc(Oc4ccccc4)cc3)c3c(N)ncnc32)C1 (centres unmarked)" system_under_test="FLT1 (Homo sapiens)" quantity_name="remaining binding at 1 µM" units_symbol=% numeric_result=93
compound=CCOC(=O)c1cnc(S(C)(=O)=O)nc1N1CCC[C@@H](n2nc(-c3ccc(Oc4ccccc4)cc3)c3c(N)ncnc32)C1 system_under_test="FLT1 (Homo sapiens)" quantity_name="remaining binding at 1 µM" units_symbol=% numeric_result=100
compound="C=CC(=O)N1CCC[C@@H](n2nc(-c3ccc(Oc4ccccc4)cc3)c3c(N)ncnc32)C1 [Compound 1g, Ibrutinib, reference compound]" system_under_test="FLT1 (Homo sapiens)" quantity_name="remaining binding at 1 µM" units_symbol=% numeric_result=72
compound="COC(=O)c1cnc(S(C)(=O)=O)nc1N1CCCC(n2nc(-c3ccc(Oc4ccccc4)cc3)c3c(N)ncnc32)C1 (centres unmarked)" system_under_test="FLT1 (Homo sapiens)" quantity_name="remaining binding at 1 µM" units_symbol=% numeric_result=98

----------
System Under Test: EGFR(L858R,T790M) (Homo sapiens, UniProt P00533, L858R/T790M)
Construct: purchased Eurofins DiscoverX KINOMEscan (scanTK)
Sequence (P00533 25-1210 T790M/L858R): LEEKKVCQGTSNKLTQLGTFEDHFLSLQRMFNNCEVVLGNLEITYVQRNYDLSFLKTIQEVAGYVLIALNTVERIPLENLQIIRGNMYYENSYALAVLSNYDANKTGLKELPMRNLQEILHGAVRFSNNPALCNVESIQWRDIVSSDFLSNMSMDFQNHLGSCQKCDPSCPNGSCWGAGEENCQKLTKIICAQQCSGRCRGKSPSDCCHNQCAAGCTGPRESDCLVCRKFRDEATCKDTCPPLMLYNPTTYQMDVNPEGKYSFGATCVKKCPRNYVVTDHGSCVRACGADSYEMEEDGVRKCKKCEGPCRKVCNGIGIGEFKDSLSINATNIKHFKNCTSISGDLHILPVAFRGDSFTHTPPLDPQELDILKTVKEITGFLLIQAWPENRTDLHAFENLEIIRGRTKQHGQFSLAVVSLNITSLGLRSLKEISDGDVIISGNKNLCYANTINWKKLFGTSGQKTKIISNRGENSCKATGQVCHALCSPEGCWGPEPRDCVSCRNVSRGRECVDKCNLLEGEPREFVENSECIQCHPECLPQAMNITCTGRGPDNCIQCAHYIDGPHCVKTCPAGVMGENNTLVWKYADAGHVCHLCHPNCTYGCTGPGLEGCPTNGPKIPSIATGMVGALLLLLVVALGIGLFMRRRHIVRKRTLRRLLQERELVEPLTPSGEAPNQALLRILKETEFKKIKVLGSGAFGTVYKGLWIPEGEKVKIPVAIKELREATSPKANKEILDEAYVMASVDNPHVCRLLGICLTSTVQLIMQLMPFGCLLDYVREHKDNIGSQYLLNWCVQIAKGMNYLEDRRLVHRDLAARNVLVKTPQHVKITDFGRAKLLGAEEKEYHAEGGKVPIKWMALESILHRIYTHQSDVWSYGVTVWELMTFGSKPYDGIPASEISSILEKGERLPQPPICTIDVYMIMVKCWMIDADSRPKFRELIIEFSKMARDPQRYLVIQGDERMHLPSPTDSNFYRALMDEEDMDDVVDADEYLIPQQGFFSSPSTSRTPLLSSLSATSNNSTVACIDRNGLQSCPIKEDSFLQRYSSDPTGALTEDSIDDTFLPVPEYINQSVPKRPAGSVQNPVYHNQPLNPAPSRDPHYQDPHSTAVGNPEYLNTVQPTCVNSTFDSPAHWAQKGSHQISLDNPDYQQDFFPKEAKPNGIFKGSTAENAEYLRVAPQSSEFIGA
Procedure Text: KINOMEscan ScanTK
Format: binding
Test Context: read-out: %Control @1000nM
remaining binding at 1 µM listing for selected compounds.
Quantity Name: remaining binding at 1 µM (%)

compound="COC(=O)c1cnc(S(C)(=O)=O)nc1N1CCCC(n2nc(-c3ccc(Oc4ccccc4)cc3)c3c(N)ncnc32)C1 (stereo not shown)" system_under_test="EGFR(L858R,T790M) (Homo sapiens, UniProt P00533, L858R/T790M)" quantity_name="remaining binding at 1 µM" numeric_result=79
compound=CCOC(=O)c1cnc(S(C)(=O)=O)nc1N1CCC[C@@H](n2nc(-c3ccc(Oc4ccccc4)cc3)c3c(N)ncnc32)C1 system_under_test="EGFR(L858R,T790M) (Homo sapiens, UniProt P00533, L858R/T790M)" quantity_name="remaining binding at 1 µM" numeric_result=87
compound="Cc1cnc(S(C)(=O)=O)nc1N1CCCC(n2nc(-c3ccc(Oc4ccccc4)cc3)c3c(N)ncnc32)C1 (stereo not shown)" system_under_test="EGFR(L858R,T790M) (Homo sapiens, UniProt P00533, L858R/T790M)" quantity_name="remaining binding at 1 µM" numeric_result=91
compound="CNC(=O)c1cnc(S(C)(=O)=O)nc1N1CCCC(n2nc(-c3ccc(Oc4ccccc4)cc3)c3c(N)ncnc32)C1 (stereo not shown)" system_under_test="EGFR(L858R,T790M) (Homo sapiens, UniProt P00533, L858R/T790M)" quantity_name="remaining binding at 1 µM" numeric_result=59

----------
System Under Test: RET(M918T) (Homo sapiens, UniProt P07949, M918T)
Construct: purchased Eurofins DiscoverX KINOMEscan (scanTK)
Sequence (P07949 29-1114 M918T): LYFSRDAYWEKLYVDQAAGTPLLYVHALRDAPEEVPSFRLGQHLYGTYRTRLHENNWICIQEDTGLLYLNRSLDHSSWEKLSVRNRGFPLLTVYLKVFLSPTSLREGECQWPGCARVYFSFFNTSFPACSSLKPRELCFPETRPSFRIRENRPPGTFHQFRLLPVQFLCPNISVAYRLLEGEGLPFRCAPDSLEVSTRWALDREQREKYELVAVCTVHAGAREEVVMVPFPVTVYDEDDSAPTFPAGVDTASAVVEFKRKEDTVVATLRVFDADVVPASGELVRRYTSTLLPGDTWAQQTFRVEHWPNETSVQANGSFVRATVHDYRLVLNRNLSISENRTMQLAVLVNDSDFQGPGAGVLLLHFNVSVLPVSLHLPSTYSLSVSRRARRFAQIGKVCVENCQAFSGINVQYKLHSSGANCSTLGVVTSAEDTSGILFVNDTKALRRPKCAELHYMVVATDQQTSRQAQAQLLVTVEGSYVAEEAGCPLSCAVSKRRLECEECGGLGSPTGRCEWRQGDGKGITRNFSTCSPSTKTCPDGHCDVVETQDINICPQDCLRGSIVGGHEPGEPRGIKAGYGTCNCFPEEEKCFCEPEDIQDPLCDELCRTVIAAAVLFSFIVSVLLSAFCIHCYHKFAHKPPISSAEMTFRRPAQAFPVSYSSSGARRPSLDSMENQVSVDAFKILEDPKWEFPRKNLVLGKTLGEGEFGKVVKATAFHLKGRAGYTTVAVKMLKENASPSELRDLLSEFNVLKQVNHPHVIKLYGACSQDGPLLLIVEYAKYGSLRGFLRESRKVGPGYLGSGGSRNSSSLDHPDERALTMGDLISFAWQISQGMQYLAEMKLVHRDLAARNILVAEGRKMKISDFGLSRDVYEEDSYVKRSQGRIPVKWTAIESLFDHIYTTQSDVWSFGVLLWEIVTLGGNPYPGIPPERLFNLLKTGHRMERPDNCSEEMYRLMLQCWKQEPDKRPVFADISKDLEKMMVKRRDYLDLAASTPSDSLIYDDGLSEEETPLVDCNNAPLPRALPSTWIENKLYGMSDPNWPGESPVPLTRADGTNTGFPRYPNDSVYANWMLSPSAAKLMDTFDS
Procedure Text: KINOMEscan ScanTK
Type: binding
Test Context: @1000nM, read-out: %Control
Quantity Name: remaining binding at 1 µM (%)

compound=CCOC(=O)c1cnc(S(C)(=O)=O)nc1N1CCC[C@@H](n2nc(-c3ccc(Oc4ccccc4)cc3)c3c(N)ncnc32)C1 quantity_name="remaining binding at 1 µM" numeric_result=87
compound="C=CC(=O)N1CCC[C@@H](n2nc(-c3ccc(Oc4ccccc4)cc3)c3c(N)ncnc32)C1 [Compound 1g, Ibrutinib, reference compound]" quantity_name="remaining binding at 1 µM" numeric_result=14
compound="COC(=O)c1cnc(S(C)(=O)=O)nc1N1CCCC(n2nc(-c3ccc(Oc4ccccc4)cc3)c3c(N)ncnc32)C1 (centres unmarked)" quantity_name="remaining binding at 1 µM" numeric_result=49
compound="Cc1cnc(S(C)(=O)=O)nc1N1CCCC(n2nc(-c3ccc(Oc4ccccc4)cc3)c3c(N)ncnc32)C1 (centres unmarked)" quantity_name="remaining binding at 1 µM" numeric_result=53
compound="CNC(=O)c1cnc(S(C)(=O)=O)nc1N1CCCC(n2nc(-c3ccc(Oc4ccccc4)cc3)c3c(N)ncnc32)C1 (centres unmarked)" quantity_name="remaining binding at 1 µM" numeric_result=32

----------
The reader will find reported remaining binding at 1 µM values listed item by item below.
System Under Test: MUSK (Homo sapiens, UniProt O15146)
Construct: purchased Eurofins DiscoverX KINOMEscan (scanTK)
Sequence (O15146 24-869): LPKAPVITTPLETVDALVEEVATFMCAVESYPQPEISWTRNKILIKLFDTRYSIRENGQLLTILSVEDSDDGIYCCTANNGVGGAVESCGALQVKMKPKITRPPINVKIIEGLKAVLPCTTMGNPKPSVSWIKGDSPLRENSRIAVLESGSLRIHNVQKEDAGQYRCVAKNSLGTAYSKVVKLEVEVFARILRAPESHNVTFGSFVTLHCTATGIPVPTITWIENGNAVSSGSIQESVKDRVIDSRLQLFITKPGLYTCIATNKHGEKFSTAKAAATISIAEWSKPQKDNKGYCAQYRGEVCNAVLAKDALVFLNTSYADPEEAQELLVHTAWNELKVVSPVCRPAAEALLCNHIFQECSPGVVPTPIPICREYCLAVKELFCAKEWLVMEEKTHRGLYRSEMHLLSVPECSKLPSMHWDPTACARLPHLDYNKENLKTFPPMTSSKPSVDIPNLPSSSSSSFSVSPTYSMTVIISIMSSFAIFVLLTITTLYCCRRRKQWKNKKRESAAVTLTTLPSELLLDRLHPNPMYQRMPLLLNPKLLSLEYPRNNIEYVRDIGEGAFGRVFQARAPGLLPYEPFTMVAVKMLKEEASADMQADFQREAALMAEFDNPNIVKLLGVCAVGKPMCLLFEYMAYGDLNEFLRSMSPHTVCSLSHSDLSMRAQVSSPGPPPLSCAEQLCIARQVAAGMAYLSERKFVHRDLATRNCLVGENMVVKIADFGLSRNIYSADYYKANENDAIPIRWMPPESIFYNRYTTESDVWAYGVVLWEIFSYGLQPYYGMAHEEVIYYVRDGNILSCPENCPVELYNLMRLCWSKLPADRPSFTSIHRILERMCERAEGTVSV
Procedure Text: KINOMEscan ScanTK
Assay type: binding
Test Context: @1000nM, read-out: %Control
Quantity Name: remaining binding at 1 µM (%)

compound="CCOC(=O)c1cnc(S(C)(=O)=O)nc1N1CCC[C@@H](n2nc(-c3ccc(Oc4ccccc4)cc3)c3c(N)ncnc32)C1 [Compound 8c]" system_under_test="MUSK (Homo sapiens, UniProt O15146)" numeric_result=73
compound="C=CC(=O)N1CCC[C@@H](n2nc(-c3ccc(Oc4ccccc4)cc3)c3c(N)ncnc32)C1 [Compound 1g, Ibrutinib, reference compound]" system_under_test="MUSK (Homo sapiens, UniProt O15146)" numeric_result=95
compound="COC(=O)c1cnc(S(C)(=O)=O)nc1N1CCCC(n2nc(-c3ccc(Oc4ccccc4)cc3)c3c(N)ncnc32)C1 (centres unmarked) [Compound 8b]" system_under_test="MUSK (Homo sapiens, UniProt O15146)" numeric_result=92
compound="CNC(=O)c1cnc(S(C)(=O)=O)nc1N1CCCC(n2nc(-c3ccc(Oc4ccccc4)cc3)c3c(N)ncnc32)C1 (centres unmarked) [Compound 8d]" system_under_test="MUSK (Homo sapiens, UniProt O15146)" numeric_result=98
compound="Cc1cnc(S(C)(=O)=O)nc1N1CCCC(n2nc(-c3ccc(Oc4ccccc4)cc3)c3c(N)ncnc32)C1 (centres unmarked) [Compound 8a]" system_under_test="MUSK (Homo sapiens, UniProt O15146)" numeric_result=88
